# credit: patent US20260183411A1

pKd: recorded values
Molecular target: T1, cyno SORT1 (76-753)-His (cyno, UniProt A0A2K5VHG2 74-751)
T1 construct: range 76-753; Amine-coupled to CM5 chip for SPR
T1 sequence: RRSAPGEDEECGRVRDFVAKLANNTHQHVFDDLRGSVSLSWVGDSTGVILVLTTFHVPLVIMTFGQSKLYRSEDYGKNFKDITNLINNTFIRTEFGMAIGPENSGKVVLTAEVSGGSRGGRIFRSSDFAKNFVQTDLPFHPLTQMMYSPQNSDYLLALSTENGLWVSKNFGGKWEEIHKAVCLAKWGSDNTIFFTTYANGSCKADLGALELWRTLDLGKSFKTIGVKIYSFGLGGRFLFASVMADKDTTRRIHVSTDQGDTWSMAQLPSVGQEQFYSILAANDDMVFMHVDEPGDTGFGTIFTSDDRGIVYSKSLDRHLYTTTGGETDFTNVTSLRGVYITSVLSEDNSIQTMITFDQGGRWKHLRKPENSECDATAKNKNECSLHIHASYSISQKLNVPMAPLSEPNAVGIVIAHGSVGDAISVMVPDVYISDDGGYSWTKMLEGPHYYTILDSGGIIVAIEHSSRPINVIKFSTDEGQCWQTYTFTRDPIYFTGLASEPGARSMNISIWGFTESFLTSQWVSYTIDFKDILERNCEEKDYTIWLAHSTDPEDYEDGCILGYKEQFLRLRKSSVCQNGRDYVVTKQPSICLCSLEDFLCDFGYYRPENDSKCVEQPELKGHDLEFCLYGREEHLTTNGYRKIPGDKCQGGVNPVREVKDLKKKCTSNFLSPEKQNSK
Experiment: SPR (Biacore 8K), SORT1 on CM5 chip, unconjugated peptide with conjugation handles as analyte, 1:1 model
Bridges are numbered along the chain shown (N, C = ends). Where no end group is shown, it is not given here. [ ]: non-standard residue; d: D form. conjugation handle = not defined here; tBuAla = CC(C)(C)C[C@H](N)C(=O)O; Cba = N[C@@H](CC1CCC1)C(=O)O; Tle = CC(C)(C)[C@H](N)C(=O)O; Nle = CCCC[C@H](N)C(=O)O
Just so you know, pKd here is -log10 of the concentration in molar units; reply with that number alone.

APRWDAPLRDPALRQ[Tle][Cba] (also: conjugation handles, not given here, also called Arb-SAR-Q15) [SORT1 peptide 2 (w/conjugation handles), unconjugated] = 9.82

Please look up its pKd: RWCENK(conjugation handle)R[Nle]FTCRQ[Tle][tBuAla] (disulfide 3-11 (inferred); reading uncertain; also: K6 conjugation handle not given here, printed as RWCENKR(Nle)FTCRQ(B13)(F02)) [SORT1 peptide 3 (w/conjugation handles), unconjugated]
9.72
